Readings of Population Pyknosed Nuclei (%) for the listed compounds
# System: HEK-293T
# assayMethodText: Multiplex assay against HEK293T
# Type: toxicity, cell-based
# conditionDescription: human, 24 h, 1 µM, compound concentration 1 uM, replicate 2
measuredParameter: Population Pyknosed Nuclei (%)

# compound, recordedValue
data = [
    ("O=C(NCCN1CCC(n2c(=O)[nH]c3cc(Cl)ccc32)CC1)c1ccc(F)cc1 [HALOPEMIDE]", "11%"),
    ("CN[C@@H](C)C(=O)N[C@H](C(=O)N1CCC[C@H]1C(=O)Nc1snnc1-c1ccccc1)C1CCCCC1", "12%"),
    ("COC[C@@H](c1ccc(C(F)(F)F)cc1)N1CCN(C2(C)CCN(C(=O)c3c(C)ncnc3C)CC2)C[C@@H]1C.O=C(O)/C=C\\C(=O)O [VICRIVIROC MALEATE]", "8%"),
    ("CCCCC1=NC2(CCCC2)C(=O)N1Cc1ccc(-c2ccccc2-c2nnn[nH]2)cc1", "9%"),
    ("COc1ccccc1N1CCN(C[C@@H](C(=O)NC(C)(C)C)c2ccccc2)CC1.Cl.Cl", "11%"),
    ("Cl.NCCc1ccc(O)c(O)c1 [DOPAMINE HYDROCHLORIDE]", "5%"),
    ("Cc1cnc(-c2cc(N3CCN(C(=O)CCS(C)(=O)=O)CC3)ncc2Cl)c(C)c1", "9%"),
    ("CC(C)(C)c1cc(NC(=O)Nc2ccc(-c3cn4c(n3)sc3cc(OCCN5CCOCC5)ccc34)cc2)no1", "10%"),
    ("Br.CS(=O)(=O)Nc1c(O)ccc2c1CCCC2C1=NCCN1 (stereo not drawn)", "13%"),
    ("O=C1[C@H](Cc2ccc(O)cc2)N2C(=O)CCN(C(=O)NCc3ccccc3)[C@H]2CN1Cc1cccc2ccccc12", "14%"),
    ("Cc1cccc(NC(=O)CN2CCC(c3ccccn3)CC2)c1.Cl.Cl", "10%"),
    ("Cc1sc2c(c1C)C(c1ccc(Cl)cc1)=N[C@@H](CC(=O)NCCCCCCCCNC(=O)COc1cccc3c1C(=O)N(C1CCC(=O)NC1=O)C3=O)c1nnc(C)n1-2 (stereo partly drawn)", "23%"),
    ("CC[C@@H](C)Nc1nc(C)nc2c(-c3ccc(OC)nc3C)c(C)nn12", "9%"),
    ("CC(C)COc1ccc(CNC(=O)N(Cc2ccc(F)cc2)C2CCN(C)CC2)cc1", "12%"),
    ("CC(C)c1noc(N2CCC(COc3ccc(-c4ccc(S(C)(=O)=O)cc4)nc3)CC2)n1", "9%"),
    ("CN1CCN(c2cc(-c3ccccc3)nc(N)n2)CC1", "8%"),
    ("N#Cc1c(Oc2cccc(OS(=O)(=O)CCCC(F)(F)F)c2)cccc1C(F)(F)F", "9%"),
    ("CC(=O)Nc1cccc2c1c(Sc1ccc(Cl)cc1)c(C)n2CC(=O)O", "11%"),
]
